# TARGET SYSTEM: NR1A/NR2B NMDA receptor subtype (Rattus norvegicus, UniProt P35439+Q00960)
# Construct: buffy coat membrane fraction was prepared from frozen adult rat forebrains; tissue Zivic-Miller Laboratories, Inc; host or cells: adult rat forebrain membranes
# Sequence (Q00960 27-1482, other chains not shown): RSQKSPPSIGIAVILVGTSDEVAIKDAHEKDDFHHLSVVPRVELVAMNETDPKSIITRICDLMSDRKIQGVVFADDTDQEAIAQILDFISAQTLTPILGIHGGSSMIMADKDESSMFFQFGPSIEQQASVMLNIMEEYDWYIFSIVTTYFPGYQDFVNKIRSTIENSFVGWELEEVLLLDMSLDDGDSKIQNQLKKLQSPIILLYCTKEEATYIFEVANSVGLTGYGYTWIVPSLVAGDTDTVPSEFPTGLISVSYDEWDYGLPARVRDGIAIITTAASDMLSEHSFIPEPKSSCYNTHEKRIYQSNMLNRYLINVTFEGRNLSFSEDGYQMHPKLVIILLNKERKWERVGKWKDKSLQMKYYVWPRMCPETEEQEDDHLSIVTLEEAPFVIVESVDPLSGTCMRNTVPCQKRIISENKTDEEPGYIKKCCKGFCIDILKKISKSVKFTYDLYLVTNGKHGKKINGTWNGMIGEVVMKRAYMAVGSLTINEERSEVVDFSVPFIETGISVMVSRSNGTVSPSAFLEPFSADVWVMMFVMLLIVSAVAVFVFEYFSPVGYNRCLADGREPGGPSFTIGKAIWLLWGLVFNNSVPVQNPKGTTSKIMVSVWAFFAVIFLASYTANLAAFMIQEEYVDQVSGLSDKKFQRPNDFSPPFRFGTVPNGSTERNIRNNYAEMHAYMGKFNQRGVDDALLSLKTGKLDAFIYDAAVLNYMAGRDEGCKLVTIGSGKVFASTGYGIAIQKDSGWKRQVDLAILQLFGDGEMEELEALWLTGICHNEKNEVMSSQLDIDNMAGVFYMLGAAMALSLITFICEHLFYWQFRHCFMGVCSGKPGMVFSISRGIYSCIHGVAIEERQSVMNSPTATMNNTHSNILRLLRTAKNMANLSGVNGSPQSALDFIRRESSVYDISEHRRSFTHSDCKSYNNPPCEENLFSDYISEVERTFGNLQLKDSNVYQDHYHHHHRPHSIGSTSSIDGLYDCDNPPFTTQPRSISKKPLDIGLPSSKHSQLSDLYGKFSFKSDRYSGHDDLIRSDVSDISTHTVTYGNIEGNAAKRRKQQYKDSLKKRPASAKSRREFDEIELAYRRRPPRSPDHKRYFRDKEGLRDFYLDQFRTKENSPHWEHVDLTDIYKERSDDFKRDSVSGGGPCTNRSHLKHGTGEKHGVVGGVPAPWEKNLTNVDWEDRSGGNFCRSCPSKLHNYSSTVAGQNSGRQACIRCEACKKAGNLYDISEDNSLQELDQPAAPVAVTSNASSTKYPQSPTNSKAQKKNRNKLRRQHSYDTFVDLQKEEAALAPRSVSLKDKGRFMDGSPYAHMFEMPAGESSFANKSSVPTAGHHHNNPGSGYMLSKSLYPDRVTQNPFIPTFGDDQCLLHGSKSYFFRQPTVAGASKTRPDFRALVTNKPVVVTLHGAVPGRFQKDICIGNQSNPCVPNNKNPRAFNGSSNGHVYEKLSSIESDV
# PROTOCOL SUMMARY: [3H]Ifenprodil binding assay (IFPNR), rat forebrain membranes
# REPORTED CONDITIONS: Table 4, 4 nM [3H]-ifenprodil, read-out: IFPNR IC50
MEASURED QUANTITY: pIC50
The read-out pIC50 is expressed as -log10 of concentration in moles per litre.

> print(dat)
                                   molecule  numeric.result
1  O=c1[nH]c2ccc(C3=NOC(CN4CCC(Oc5ccc(F)cc5)CC4)C3)cc2o1 (stereo not drawn) [Example 27]            7.23
2  O=C(c1ccc(F)cc1)C1CCN(CC2CC(c3ccc4[nH]c(=O)oc4c3)=NO2)CC1 (stereo not drawn) [Example 30]            6.12
3  O=c1[nH]c2ccc(C3=NOC(CN4CCC([S+]([O-])c5ccc(F)cc5)CC4)C3)cc2o1 (stereo not drawn) [Example 29]            6.22

*Q* Request the reported pIC50 associated with O=c1[nH]c2ccc(C3=NOC(CN4CCC(Sc5ccc(F)cc5)CC4)C3)cc2o1 (stereo not drawn) [Example 28]
*A* 7.74
